- Tested on: HCI-012 (organoid from a breast cancer xenograft)
- Test description: CTG-3D luminescence at 96 h relative to day-0 seeding control (ratio to day 0); higher = more growth / less cytotoxicity; PDxO 3D drug screen, 96 h, CTG-3D normalised to day-0 seeding control.
- Cond: 0.00025 µM; days in culture: 143
CTG-3D luminescence at 96 h values for the compounds below.
In your answer, state the number alone without any accompanying words.

Answered examples (3):
# Compound, Assay value
records = [
    ("O=C(/C=C/c1cccnc1)NCCCCC1CCN(C(=O)c2ccccc2)CC1", 2.17),
    ("COc1cccc2c1C(=O)c1c(O)c3c(c(O)c1C2=O)C[C@@](O)(C(=O)CO)C[C@@H]3O[C@H]1C[C@H](N)[C@H](O)[C@H](C)O1", 1.93),
    ("C[C@]12CC[C@@H]3c4ccc(O)cc4C[C@@H](CCCCCCCCC[S+]([O-])CCCC(F)(F)C(F)(F)F)[C@H]3[C@@H]1CC[C@@H]2O (some centres undefined)", 2.33),
]

Query :: Value wanted: CTG-3D luminescence at 96 h (HCI-012) of entry NC(=O)c1cccc2cn(-c3ccc([C@@H]4CCCNC4)cc3)nc12
Result :: 2.44

Query :: Value wanted: CTG-3D luminescence at 96 h (HCI-012) of entry Cc1cc(Nc2ncnc3ccc(NC4=NC(C)(C)CO4)cc23)ccc1Oc1ccn2ncnc2c1
Result :: 2.35

Query :: Value wanted: CTG-3D luminescence at 96 h (HCI-012) of entry CS(=O)(=O)c1ccc(C(=O)Nc2ccc(Cl)c(-c3ccccn3)c2)c(Cl)c1
Result :: 2.38

###

CTG-3D luminescence at 96 h values for the compounds below.
- Tested on: HCI-001 (organoid from a triple-negative breast cancer xenograft)
- Test description: CTG-3D luminescence at 96 h relative to day-0 seeding control (ratio to day 0); higher = more growth / less cytotoxicity; PDxO 3D drug screen, 96 h, CTG-3D normalised to day-0 seeding control.
- Cond: 1 µM; days in culture: 364

Answered examples (2):
# Compound, Assay value
data = [
    ("Cc1cc(Nc2ncnc3ccc(NC4=NC(C)(C)CO4)cc23)ccc1Oc1ccn2ncnc2c1", 0.895),
    ("C[C@]12CC[C@@H]3c4ccc(O)cc4C[C@@H](CCCCCCCCC[S+]([O-])CCCC(F)(F)C(F)(F)F)[C@H]3[C@@H]1CC[C@@H]2O (stereo partly drawn)", 0.954),
]

Please turn your attention to the following entry.
Query :: Find the recorded CTG-3D luminescence at 96 h belonging to NC1(C(=O)N[C@@H](CCO)c2ccc(Cl)cc2)CCN(c2nc[nH]c3nccc2-3)CC1 and report it.
Result :: 0.847

###

CTG-3D luminescence at 96 h values for the molecules below.
- Test system: HCI-015 (organoid from a triple-negative breast cancer xenograft)
- Test description: CTG-3D luminescence at 96 h relative to day-0 seeding control (ratio to day 0); higher = more growth / less cytotoxicity; PDxO 3D drug screen, 96 h, CTG-3D normalised to day-0 seeding control.
- Cond: 0.005 µM; days in culture: 218

# Molecule, Attribute measured, Assay value
measured = [
    ("CC(=O)O[C@H]1C(=O)[C@@]2(C)[C@H]([C@H](OC(=O)c3ccccc3)[C@]3(O)C[C@H](OC(=O)[C@H](O)[C@@H](NC(=O)c4ccccc4)c4ccccc4)C(C)=C1C3(C)C)[C@]1(OC(C)=O)CO[C@@H]1C[C@@H]2O [paclitaxel]", "CTG-3D luminescence at 96 h", 0.801),
    ("C[C@@H]1COCCN1c1cc(C2([S@](C)(=N)=O)CC2)nc(-c2cc[nH]c3nccc2-3)n1 [ceralasertib]", "CTG-3D luminescence at 96 h", 1.72),
    ("C[C@H](NC(=O)CCC(F)(F)F)C(=O)N[C@@H]1C(=O)N(CCO)c2ncccc2-c2ccccc21 [crenigacestat]", "CTG-3D luminescence at 96 h", 0.952),
    ("C=CC(=O)N1CCC[C@@H](n2nc(-c3ccc(Oc4ccccc4)cc3)c3c(N)ncnc32)C1 [ibrutinib]", "CTG-3D luminescence at 96 h", 1.76),
]

Query :: Value wanted: CTG-3D luminescence at 96 h (HCI-015) of entry CNC(=O)c1cccc(-c2ccc3c(N4CCOC[C@@H]4C)nc(N4CCOC[C@@H]4C)nc3n2)c1 [vistusertib]
Result :: 2.09

Query :: Value wanted: CTG-3D luminescence at 96 h (HCI-015) of entry CC(C)(C(=O)NCC(F)(F)C(F)(F)F)C(=O)N[C@@H]1C(=O)Nc2ccccc2-c2ccccc21
Result :: 1.03

Query :: Value wanted: CTG-3D luminescence at 96 h (HCI-015) of entry O=C(c1ccc(F)c(F)c1Nc1ccc(I)cc1F)N1CC(O)([C@@H]2CCCCN2)C1 [cobimetinib]
Result :: 2.02

###

- Tested on: HCI-015
- Test description: CTG-3D luminescence at 96 h relative to day-0 seeding control (ratio to day 0); higher = more growth / less cytotoxicity; PDxO 3D drug screen (set 2), 96 h, CTG-3D normalised to day-0 seeding control.
- Cond: 0.00025 µM; days in culture: 369
CTG-3D luminescence at 96 h values for the molecules below.
In your answer, state the number alone without any accompanying words.

Answered examples (4):
# Molecule, CTG-3D luminescence at 96 h
rows = [
    ("COc1cccc2c1C(=O)c1c(O)c3c(c(O)c1C2=O)C[C@@](O)(C(=O)CO)C[C@@H]3O[C@H]1C[C@H](N)[C@@H](O)[C@H](C)O1 [epirubicin]", 1.58),
    ("CO[C@H]1C[C@@H]2CC[C@@H](C)[C@@](O)(O2)C(=O)C(=O)N2CCCC[C@H]2C(=O)O[C@H]([C@H](C)C[C@@H]2CC[C@@H](OCCO)[C@H](OC)C2)CC(=O)[C@H](C)/C=C(\\C)[C@@H](O)[C@@H](OC)C(=O)[C@H](C)C[C@H](C)/C=C/C=C/C=C/1C [everolimus]", 1.19),
    ("CO[C@H]1C[C@@H]2CC[C@@H](C)[C@@](O)(O2)C(=O)C(=O)N2CCCC[C@H]2C(=O)O[C@H]([C@H](C)C[C@@H]2CC[C@@H](O)[C@H](OC)C2)CC(=O)[C@H](C)/C=C(\\C)[C@@H](O)[C@@H](OC)C(=O)[C@H](C)C[C@H](C)/C=C/C=C/C=C/1C [rapamycin]", 1.03),
    ("CC(=O)O[C@@]12CO[C@@H]1C[C@H](O)[C@@]1(C)C(=O)[C@H](O)C3=C(C)[C@@H](OC(=O)[C@H](O)[C@@H](NC(=O)OC(C)(C)C)c4ccccc4)C[C@@](O)([C@@H](OC(=O)c4ccccc4)[C@H]21)C3(C)C [docetaxel]", 0.83),
]

Query :: Value wanted: CTG-3D luminescence at 96 h (HCI-015) of entry Nc1cc(C(F)(F)F)c(-c2cc(N3CCOCC3)nc(N3CCOCC3)n2)cn1 [buparlisib]
Result :: 1.66

###

- Test system: HCI-005.E2 (organoid from a breast cancer xenograft with a HER2-positive history)
- Test description: CTG-3D luminescence at 96 h relative to day-0 seeding control (ratio to day 0); higher = more growth / less cytotoxicity; PDxO 3D drug screen, 96 h, CTG-3D normalised to day-0 seeding control.
- Cond: 10 µM
CTG-3D luminescence at 96 h values for the compounds below.
In your answer, state the number alone without any accompanying words.

Answered examples (4):
# Compound, Assayed target, Attribute measured, Assay value
measured = [
    ("CNC(=O)c1cccc(-c2ccc3c(N4CCOC[C@@H]4C)nc(N4CCOC[C@@H]4C)nc3n2)c1 [vistusertib]", "HCI-005.E2", "CTG-3D luminescence at 96 h", 0.53),
    ("C=CC(=O)N1CCC[C@@H](n2nc(-c3ccc(Oc4ccccc4)cc3)c3c(N)ncnc32)C1 [ibrutinib]", "HCI-005.E2", "CTG-3D luminescence at 96 h", 0.629),
    ("COc1cccc2c1C(=O)c1c(O)c3c(c(O)c1C2=O)C[C@@](O)(C(=O)CO)C[C@@H]3O[C@H]1C[C@H](N)[C@H](O)[C@H](C)O1 [doxorubicin]", "HCI-005.E2", "CTG-3D luminescence at 96 h", -0.00289),
    ("Cc1cc(Nc2ncc(Cl)c(Nc3ccccc3S(=O)(=O)C(C)C)n2)c(OC(C)C)cc1C1CCNCC1 [ceritinib]", "HCI-005.E2", "CTG-3D luminescence at 96 h", 0.347),
]

Please turn your attention to the following entry.
Query :: Find the recorded CTG-3D luminescence at 96 h belonging to O=C(/C=C/c1cccnc1)NCCCCC1CCN(C(=O)c2ccccc2)CC1 [FK866] and report it.
Result :: 0.267

###

- System: HCI-016 (organoid from a triple-negative breast cancer xenograft)
- Test description: CTG-3D luminescence at 96 h relative to day-0 seeding control (ratio to day 0); higher = more growth / less cytotoxicity; PDxO 3D drug screen, 96 h, CTG-3D normalised to day-0 seeding control.
- Cond: 1 µM; days in culture: 199
Attribute measured: CTG-3D luminescence at 96 h
In your answer, state the number alone without any accompanying words.

# Mol smiles, Attribute measured, Assay value
data = [
    ("COc1cc2c(Oc3ccc4[nH]c(C)cc4c3F)ncnc2cc1OCCCN1CCCC1", "CTG-3D luminescence at 96 h", 1.57),
    ("O=C(O)C1(C(=O)O)CCC1.[NH2-].[NH2-].[Pt+2]", "CTG-3D luminescence at 96 h", 1.64),
]

Query :: Find the recorded CTG-3D luminescence at 96 h belonging to O=C(c1ccc(F)c(F)c1Nc1ccc(I)cc1F)N1CC(O)([C@@H]2CCCCN2)C1 and report it.
Result :: 1.28

Query :: Find the recorded CTG-3D luminescence at 96 h belonging to Cc1nc(-c2cn3c(n2)-c2ccc(-c4cnn(C(C)(C)C(N)=O)c4)cc2OCC3)n(C(C)C)n1 and report it.
Result :: 1.48

Query :: Find the recorded CTG-3D luminescence at 96 h belonging to CC(C)n1nc(-c2ccc3oc(N)nc3c2)c2c(N)ncnc21 and report it.
Result :: 0.511

Query :: Find the recorded CTG-3D luminescence at 96 h belonging to NC1(C(=O)N[C@@H](CCO)c2ccc(Cl)cc2)CCN(c2nc[nH]c3nccc2-3)CC1 and report it.
Result :: 1.44
